Tested on: BXPC-3
Assay: Antiproliferative activity against human BxPC3 cells after 72 hrs by Alamar blue assay
Settings: Homo sapiens, BXPC-3, 72 h
assay.metric: EC50 (nM)

> print(dat)
                                   compound  measured.result
1  O=C1CCCC2=C1C(c1cccc(O)c1)NC(=S)N2 (racemic)             2070
2  CC1=C(C(=O)c2ccc(F)cc2)C(c2cccc(O)c2)NC(=S)N1C (centres undefined)             2160
3  CC1=C(C(=O)c2cccc(F)c2)C(c2cccc(O)c2)NC(=S)N1C (centres undefined)             2840

====

Test: Antiproliferative activity against human KBV1 cells overexpressing MDR1 after 72 hrs by Alamar blue assay
Settings: KB-V1, 72 h
assay.metric: pEC50
The meaning of pEC50 here: minus log10 of the concentration in molar units.

Suppose we examine the compound CC1=C(C(=O)c2ccc(F)c(F)c2)C(c2cccc(O)c2)NC(=S)N1C (racemic) ; what pEC50 value has been reported?
5.68

What value of pEC50 has been reported for the following compound? CC[C@]1(O)C[C@@H]2CN(CCc3c([nH]c4ccccc34)[C@@](C(=O)OC)(c3cc4c(cc3OC)N(C)[C@H]3[C@@](O)(C(=O)OC)[C@H](OC(C)=O)[C@]5(CC)C=CCN6CC[C@]43[C@@H]65)C2)C1 [VINBLASTINE]
5.69

Entry CCOC(=O)C1=C(C)NC(=S)NC1c1cccc(O)c1 (racemic) [MONASTROL] : reported pEC50 = ?
4.00

====

Assay: Antiproliferative activity against human hTERT-HME1 cells after 72 hrs by Alamar blue assay
Settings: Homo sapiens, HME1, 72 h
assay.metric: pEC50
pEC50 here is simply -log10 of the concentration when that concentration is written in mol/L.

> print(dat)
                                   molecule  assay.metric  measured.result
1  CC1=C(C(=O)c2ccc(F)cc2)C(c2cccc(O)c2)NC(=S)N1C (centres undefined)         pEC50             5.59
2  O=C1CCCC2=C1C(c1cccc(O)c1)NC(=S)N2 (racemic)         pEC50             5.61
3  CC1=C(C(=O)c2cccc(F)c2)C(c2cccc(O)c2)NC(=S)N1C (centres undefined)         pEC50             5.55

Here is another molecule to look at.
Consider the molecule CCOC(=O)C1=C(C)NC(=S)NC1c1cccc(O)c1 (racemic) and give its measured pEC50.
4.35
